# System name: Neuronal acetylcholine receptor subunit alpha-7 (Rattus norvegicus, UniProt Q05941)
# Sequence (Q05941 whole entry): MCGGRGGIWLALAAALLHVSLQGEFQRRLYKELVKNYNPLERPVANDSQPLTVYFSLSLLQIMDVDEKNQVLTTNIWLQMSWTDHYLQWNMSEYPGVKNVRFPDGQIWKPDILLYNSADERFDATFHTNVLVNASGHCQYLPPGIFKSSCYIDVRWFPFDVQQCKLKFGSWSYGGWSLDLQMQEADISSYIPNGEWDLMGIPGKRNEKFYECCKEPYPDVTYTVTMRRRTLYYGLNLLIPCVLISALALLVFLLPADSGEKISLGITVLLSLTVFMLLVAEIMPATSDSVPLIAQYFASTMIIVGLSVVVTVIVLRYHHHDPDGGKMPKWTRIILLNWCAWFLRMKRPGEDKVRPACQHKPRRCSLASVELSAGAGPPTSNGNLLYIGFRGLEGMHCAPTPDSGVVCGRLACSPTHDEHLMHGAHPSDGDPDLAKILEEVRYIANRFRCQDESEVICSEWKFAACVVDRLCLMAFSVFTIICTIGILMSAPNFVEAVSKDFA
# Test description: Agonist activity at rat alpha7 nAChR expressed in HEK293 cells assessed as calcium ion influx by FRET assay
# Format: cell-based
Readings of EC50 for the listed molecules
Property measured: EC50 (nM)

> print(dat)
                                    molecule  reported.relation  quantitative.readout
 1  Cc1ccc(-c2cc(=O)n(CC3CCCNC3)c3ccccc23)cc1 (racemic)                  >                 10000
 2  CC(CN(C)C)Cn1c(=O)cc(-c2ccccc2)c2ccccc21 (racemic)                  >                 10000
 3  O=c1cc(-c2ccccc2)c2ccccc2n1CC1CNCCO1 (stereo unspecified)                  =                   260
 4  CN(C)CCCn1c(=O)c(C#N)c(-c2ccccc2)c2ccccc21                  =                  1300
 5  CS(=O)(=O)NCc1cccc(-c2cc(=O)n(CC3CN4CCC3CC4)c3ccccc23)c1 (racemic)                  =                    14
 6           CN(C)CCCn1c(=O)c(C#N)cc2ccccc21                  >                 10000
 7        CN(C)CCCn1ccc(-c2ccccc2)c(C#N)c1=O                  >                 10000
 8  N#Cc1c(-c2ccccc2)c2ccccc2n(CC2CCCNC2)c1=O (racemic)                  =                   460
 9  O=c1cc(-c2cccc3[nH]ccc23)c2ccccc2n1CC1CCCNC1 (racemic)                  =                   110
10  CCN(C)CCCn1c(=O)c(C#N)c(-c2ccccc2)c2ccccc21                  =                  4300
11    CN(C)CCCCn1c(=O)cc(-c2ccccc2)c2ccccc21                  >                 10000
